Catalogue of Affinity ELISA CPE mutant ratio (1:9, pH 6.0/7.4) readings, one per entry.
tested.on: T1, Axl protein (human, UniProt P30530 26-451)
T1 construct: extracellular domain; also called human Axl; hAxl
T1 sequence (looked up): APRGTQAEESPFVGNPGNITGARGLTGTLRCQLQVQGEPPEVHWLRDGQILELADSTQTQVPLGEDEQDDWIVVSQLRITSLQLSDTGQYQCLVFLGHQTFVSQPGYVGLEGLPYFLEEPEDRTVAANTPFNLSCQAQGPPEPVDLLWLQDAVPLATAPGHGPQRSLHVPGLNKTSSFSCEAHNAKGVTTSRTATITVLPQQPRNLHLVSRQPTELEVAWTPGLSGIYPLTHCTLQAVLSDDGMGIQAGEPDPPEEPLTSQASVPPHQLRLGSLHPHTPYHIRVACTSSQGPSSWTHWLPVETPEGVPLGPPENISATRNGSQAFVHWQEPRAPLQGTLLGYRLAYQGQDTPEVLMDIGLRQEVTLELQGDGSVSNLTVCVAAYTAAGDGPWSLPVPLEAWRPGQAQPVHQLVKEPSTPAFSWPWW
assay.text: ELISA, 1:9 dilution, pH 6.0 over pH 7.4
property.measured: Affinity ELISA CPE mutant ratio (1:9, pH 6.0/7.4) (ratio)

binder | units | observed.result
LC-H091I (antibody, V domains shown) VH: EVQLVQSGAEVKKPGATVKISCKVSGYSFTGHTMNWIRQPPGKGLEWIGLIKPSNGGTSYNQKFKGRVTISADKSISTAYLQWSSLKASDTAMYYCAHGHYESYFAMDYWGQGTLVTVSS VL: DIQMTQSPSSLSASVGDRVTITCKASQDVSSAVAWYQQKPGQAPRLLIYWASTRHTGVPSRFSGSGSGTEFTLTISSLQPDDFATYYCQEIFSTPLTFGQGTKVEIK | ratio | 2.15
LC-F092S (antibody, V domains shown) VH: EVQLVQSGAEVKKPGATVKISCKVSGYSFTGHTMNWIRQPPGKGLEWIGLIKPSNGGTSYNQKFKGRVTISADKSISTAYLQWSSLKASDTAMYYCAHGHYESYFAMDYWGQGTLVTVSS VL: DIQMTQSPSSLSASVGDRVTITCKASQDVSSAVAWYQQKPGQAPRLLIYWASTRHTGVPSRFSGSGSGTEFTLTISSLQPDDFATYYCQEHSSTPLTFGQGTKVEIK | ratio | 2.94
